- assayed_system: T1, AFP158/HLA-A*02:01 complex (human)
- T1 construct: flowed as analyte in SPR
- measurement_notes: SPR, crude scFv captured, pMHC analyte;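 also: Peptide-MHC complex at several concentrations passed over captured scFv, association then buffer-driven dissociation, on- and off-rates fitted from the curves and KD estimated from them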
For each record, write down the corresponding Kd.
One number for each entry, in nM.

Reference set (2 entries):
AS170036 VL1VH1-VLH98I (scFv) scFv: QSALTQPRSVSGSPGQSVTISCAGTSSDVGSENYVSWYQQHPGKAPKLMIYQVNKRASGVPDRFSGSKSGNTASLTISGLQAEDEADYYCASYRSSDINIVFGGGTKLTVLGGGGSGGGGSGGGGSEVQLVESGGGLVQPGGSLRLSCAASGFTFSSYAMSWVRQAPGKGLEWVSTINSGTGSPYYADSVKGRFTISRDNSKNTLYLQMNSLRAEDTAVYYCAKNFFDGSWFLGPPAMDYWGQGTLVTVSSHHHHHH = 78
AS170036 VL1VH1-VLH98P (scFv) scFv: QSALTQPRSVSGSPGQSVTISCAGTSSDVGSENYVSWYQQHPGKAPKLMIYQVNKRASGVPDRFSGSKSGNTASLTISGLQAEDEADYYCASYRSSDPNIVFGGGTKLTVLGGGGSGGGGSGGGGSEVQLVESGGGLVQPGGSLRLSCAASGFTFSSYAMSWVRQAPGKGLEWVSTINSGTGSPYYADSVKGRFTISRDNSKNTLYLQMNSLRAEDTAVYYCAKNFFDGSWFLGPPAMDYWGQGTLVTVSSHHHHHH = 70

Now take the following binder into account.
# input // returns reported Kd for input AS170036 VL1VH1-VHG108N (scFv) scFv: QSALTQPRSVSGSPGQSVTISCAGTSSDVGSENYVSWYQQHPGKAPKLMIYQVNKRASGVPDRFSGSKSGNTASLTISGLQAEDEADYYCASYRSSDHNIVFGGGTKLTVLGGGGSGGGGSGGGGSEVQLVESGGGLVQPGGSLRLSCAASGFTFSSYAMSWVRQAPGKGLEWVSTINSGTGSPYYADSVKGRFTISRDNSKNTLYLQMNSLRAEDTAVYYCAKNFFDGSWFLNPPAMDYWGQGTLVTVSSHHHHHH
# output 140

Origin of values: patent US20240279318A1
